target: ALDH1A2 (Homo sapiens, UniProt O94788); assay: Inhibition of ALDH isoenzymes (NAD(P)H formation at 340 nm, purified recombinant enzyme); conditions: 100-200 nM enzyme, 200 μM NAD+, 100 μM propionaldehyde, pH 7.5, 25° C.
Sequence (O94788 whole entry): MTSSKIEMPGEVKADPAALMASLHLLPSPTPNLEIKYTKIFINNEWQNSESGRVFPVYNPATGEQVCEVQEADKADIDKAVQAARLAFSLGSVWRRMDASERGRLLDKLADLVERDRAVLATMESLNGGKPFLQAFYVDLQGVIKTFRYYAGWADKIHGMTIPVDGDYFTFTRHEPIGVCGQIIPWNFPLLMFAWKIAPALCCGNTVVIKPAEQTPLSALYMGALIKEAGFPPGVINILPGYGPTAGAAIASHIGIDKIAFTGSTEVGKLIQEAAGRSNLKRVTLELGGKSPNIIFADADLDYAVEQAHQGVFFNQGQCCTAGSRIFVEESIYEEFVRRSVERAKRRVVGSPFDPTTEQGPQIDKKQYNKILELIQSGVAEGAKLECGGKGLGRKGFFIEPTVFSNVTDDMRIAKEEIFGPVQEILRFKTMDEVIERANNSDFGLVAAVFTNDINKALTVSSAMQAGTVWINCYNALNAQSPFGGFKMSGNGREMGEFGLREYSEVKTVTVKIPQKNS
pIC50: −log10 of the molar value.
Quick rule for you: pIC50 at 6 or higher means Y, lower means N.

[[record]]
smiles_input = "Cn1ncc2c(=O)n(-c3ccccc3)c(SCC(=O)c3ccccc3)nc21"
experimental_system = "ALDH1A2 (Homo sapiens, UniProt O94788)"
qualitative_label = "Y"

[[record]]
smiles_input = "COc1cccc(CSc2nc3c(cnn3C)c(=O)n2-c2ccccc2)c1"
experimental_system = "ALDH1A2 (Homo sapiens, UniProt O94788)"
qualitative_label = "Y"

[[record]]
smiles_input = "Cn1ncc2c(=O)n(-c3ccccc3)c(SCc3cccc(C=O)c3)nc21"
experimental_system = "ALDH1A2 (Homo sapiens, UniProt O94788)"
qualitative_label = "N"

[[record]]
smiles_input = "CCn1cc2c(=O)n(-c3ccccc3C)c(SCc3cccc(F)c3)nc2n1"
experimental_system = "ALDH1A2 (Homo sapiens, UniProt O94788)"
qualitative_label = "N"

[[record]]
smiles_input = "CCn1ncc2c(=O)n(-c3ccccc3C)c(SCc3cccc(F)c3)nc21"
experimental_system = "ALDH1A2 (Homo sapiens, UniProt O94788)"
qualitative_label = "N"

[[record]]
smiles_input = "Cn1ncc2c(=O)n(-c3ccccc3)c(SCc3ccccc3)nc21"
experimental_system = "ALDH1A2 (Homo sapiens, UniProt O94788)"
qualitative_label = "Y"

[[record]]
smiles_input = "Cn1ncc2c(=O)n(-c3ccccc3)c(SCc3cccc(C(=O)C(F)(F)F)c3)nc21"
experimental_system = "ALDH1A2 (Homo sapiens, UniProt O94788)"
qualitative_label = "N"

[[record]]
smiles_input = "Cc1ccccc1-n1c(SCc2cccc(F)c2)nc2[nH]ncc2c1=O"
experimental_system = "ALDH1A2 (Homo sapiens, UniProt O94788)"
qualitative_label = "N"

[[record]]
smiles_input = "CCn1cc2c(=O)n(-c3ccccc3)c(SCc3cccc(F)c3)nc2n1"
experimental_system = "ALDH1A2 (Homo sapiens, UniProt O94788)"
qualitative_label = "Y"

[[record]]
smiles_input = "Cc1ccccc1-n1c(OCc2cc3ccccc3s2)nc2c(cnn2C)c1=O"
experimental_system = "ALDH1A2 (Homo sapiens, UniProt O94788)"
qualitative_label = "N"

[[record]]
smiles_input = "CCn1ncc2c(=O)n(-c3ccccc3)c(SCc3cccc(F)c3)nc21"
experimental_system = "ALDH1A2 (Homo sapiens, UniProt O94788)"
qualitative_label = "Y"

[[record]]
smiles_input = "Cc1ccccc1-n1c(SCc2cccc(F)c2)nc2c(cnn2C)c1=O"
experimental_system = "ALDH1A2 (Homo sapiens, UniProt O94788)"
qualitative_label = "N"

